Data credit: patent US20240417408A1

target: biotinylated KRAS protein containing G12C/C51S/C80L/C118S mutations (SEQ ID NO: 3) (Homo sapiens, UniProt P01116, C118S/C51S/C80L/G12C); construct: biotin acceptor peptide (Avi-type, […]; test: Test Example 4: SOS-catalyzed nucleotide exchange assay (TR-FRET); assay type: biochemical; conditions: 60-minute incubation with compound, then SOS and GTP, read-out: GNE IC50
Sequence (P01116 with tags, fused parts or gaps isoform P01116-2 G12C/C51S/C80L/C118S): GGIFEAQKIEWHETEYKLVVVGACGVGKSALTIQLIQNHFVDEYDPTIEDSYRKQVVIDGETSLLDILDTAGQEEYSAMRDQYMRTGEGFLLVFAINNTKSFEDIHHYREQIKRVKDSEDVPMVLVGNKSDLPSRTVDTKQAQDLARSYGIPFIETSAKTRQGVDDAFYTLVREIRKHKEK
pIC50: −log10 of the molar value.
Listed molecules paired with reported pIC50

# molecule, pIC50
measured = [
    ("C#Cc1cccc2cccc([C@@H]3Cc4nc(OC[C@@]56CCCN5C[C@H](F)C6)nc(N5CCN(C(=O)/C=C/CN6CCC(OC)CC6)[C@@H](CC#N)C5)c4CO3)c12 (single isomer, unassigned) [Example 25b]", 8.80),
    ("C#Cc1cccc2cccc(C3Cc4nc(OCC56CCCN5CC(F)C6)nc(N5CCN(C(=O)C=CCN6CCC(OC)CC6)C(CC#N)C5)c4CO3)c12 (single isomer, unassigned) [Example 25a]", 6.85),
    ("COC1CCN(C/C=C/C(=O)N2CCN(c3nc(OC[C@@]45CCCN4C[C@H](F)C5)nc4c3CCC3(CCCc5ccccc53)O4)C[C@@H]2CC#N)CC1 (stereo partly shown) [Example 26]", 7.09),
    ("COC1CCN(C/C=C/C(=O)N2CCN(c3nc(OC[C@@]45CCCN4C[C@H](F)C5)nc4c3COC(c3nc(N)cc(C)c3C(F)(F)F)C4)C[C@@H]2CC#N)CC1 (stereo partly shown) [Example 22]", 8.25),
    ("COC1CCN(C/C=C/C(=O)N2CCN(c3nc(OC[C@@]45CCCN4C[C@H](F)C5)nc4c3COC(c3c(F)cc(F)c5ccc(N)nc35)C4)C[C@@H]2CC#N)CC1 (single isomer, unassigned) [Example 23b]", 7.80),
    ("C#Cc1cccc2cccc(C3Cc4nc(OC[C@]5(CO)CC5(F)F)nc(N5CCN(C(=O)/C=C/CN6CCC(OC)CC6)[C@@H](CC#N)C5)c4CO3)c12 (stereo partly shown) [Example 24]", 7.26),
    ("COC1CCN(C/C=C/C(=O)N2CCN(c3nc(OC[C@@]45CCCN4C[C@H](F)C5)nc4c3COC(c3c(F)cc(F)c5ccc(N)nc35)C4)C[C@@H]2CC#N)CC1 (single isomer, unassigned) [Example 23a]", 6.88),
]

---

target: Recombinant KRAS G12C mutant protein (amino acids 1-169, SEQ ID NO: 1) (Homo sapiens, UniProt P01116, G12C); construct: His6 (N); TEV protease site (ENLYFQG; named from own knowledge) (N); test: Test Example 1: inhibitory activity on KRAS G12C nucleotide (GDP-GTP) exchange reaction in vitro; details: BODIPY FL GDP-bound KRAS G12C incubated with compound at 25° C. for 1 hour, then SOS1 and GMPPNP, read-out: GNE IC50
Sequence (P01116 with tags, fused parts or gaps isoform P01116-2 G12C): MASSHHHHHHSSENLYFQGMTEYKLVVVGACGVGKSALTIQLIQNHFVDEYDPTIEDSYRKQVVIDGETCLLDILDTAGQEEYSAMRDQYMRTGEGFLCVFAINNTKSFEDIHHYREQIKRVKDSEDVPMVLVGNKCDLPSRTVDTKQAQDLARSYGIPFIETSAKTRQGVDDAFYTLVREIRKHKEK
pIC50: −log10 of the molar value.
Answer F if pIC50 is under 8, and T if it is 8 or more.

# compound, assigned.label
data = [
    ("COC1CCN(C/C=C/C(=O)N2CCN(c3nc(OCC4(CN5CCOCC5)CC4)nc4c3COC3(Cc5ccccc5C3)C4)C[C@@H]2CC#N)CC1 [Example 20]", "F"),
    ("COC1CCN(C/C=C/C(=O)N2CCN(c3nc(OCC4(CN5CCOCC5)CC4)nc4c3COC3(CCc5cccc(Br)c53)C4)C[C@@H]2CC#N)CC1 (stereo partly drawn) [Example 21]", "F"),
    ("C#Cc1cccc2cc(O)cc([C@@H]3Cc4nc(OC[C@@H]5CCCN5C)nc(N5C[C@H](CC#N)N(C(=O)/C=C/CN6CCC(OC)CC6)C[C@H]5C)c4CO3)c12 [Example 14]", "T"),
    ("C#Cc1cccc2cc(O)cc([C@@H]3Cc4nc(OCC5(CN6CCOCC6)CC5)nc(N5CCN(C(=O)/C=C/CN6CCC(OC)CC6)[C@@H](CC#N)C5)c4CO3)c12 [Example 1]", "T"),
    ("C#Cc1cccc2cc(O)cc([C@@H]3Cc4nc(OCC5(COC)CC5)nc(N5CCN(C(=O)/C=C/CN6CCC(OC)CC6)[C@@H](CC#N)C5)c4CO3)c12 [Example 17]", "F"),
]

---

Listed compounds paired with reported IC50
target: Recombinant KRAS G12C mutant protein (amino acids 1-169, SEQ ID NO: 1) (Homo sapiens, UniProt P01116, G12C); construct: His6 (N); TEV protease site (ENLYFQG; named from own knowledge) (N); assay: Test Example 1: inhibitory activity on KRAS G12C nucleotide (GDP-GTP) exchange reaction in vitro; conditions: BODIPY FL GDP-bound KRAS G12C incubated with compound at 25° C. for 1 hour, then SOS1 and GMPPNP, read-out: GNE IC50
measurement.label: IC50 (nM)

# compound, measurement.label, obs.value
records = [
    ("C#Cc1cccc2cc(O)cc(C3Cc4nc(OC5CN(S(C)(=O)=O)C5)nc(N5CCN(C(=O)/C=C/CN6CCC(OC)CC6)[C@@H](CC#N)C5)c4CO3)c12 (stereo partly drawn)", "IC50", 338),
    ("C#Cc1cccc2cc(O)cc([C@@H]3Cc4nc(OC[C@@H]5CCCN5C)nc(N5C[C@H](CC#N)N(C(=O)/C=C/CN6CCC(OC)CC6)C[C@@H]5C)c4CO3)c12", "IC50", 103),
    ("C#Cc1cccc2cc(O)cc([C@@H]3Cc4nc(OCC5(CN(C)C)CC5)nc(N5CCN(C(=O)/C=C/CN6CCC(OC)CC6)[C@@H](CC#N)C5)c4CO3)c12", "IC50", 0.91),
]

---

biological target: interaction between KRAS G12C and cRAF-RBD (Homo sapiens, UniProt P01116, G12C); construct: TEV protease site (ENLYFQG); assay: Test Example 2: inhibitory activity on interaction between KRAS G12C and cRAF (Alpha technology); conditions: GMPPNP-bound KRAS G12C incubated with compound at 25° C. for 1 hour, then cRAF-RBD
pIC50: −log10 of the molar value.
Listed molecules paired with reported pIC50

# molecule, pIC50
measured = [
    ("C#Cc1cccc2cc(O)cc([C@@H]3Cc4nc(OCC5(C(=O)N(C)C)CC5)nc(N5CCN(C(=O)/C=C/CN6CCC(OC)CC6)[C@@H](CC#N)C5)c4CO3)c12", "< 5.18"),
    ("COC1CCN(C/C=C/C(=O)N2CCN(c3nc(OCC4(CN5CCOCC5)CC4)nc4c3COC3(CCc5cccc(Br)c53)C4)C[C@@H]2CC#N)CC1 (stereo partly shown)", "< 5.18"),
    ("C#Cc1cccc2cc(O)cc([C@@H]3Cc4nc(OC[C@@H]5CCCN5C)nc(N5C[C@H](CC#N)N(C(=O)/C=C/CN6CCC(OC)CC6)C[C@@H]5C)c4CO3)c12", "< 5.18"),
    ("COC1CCN(C/C=C/C(=O)N2CCN(c3nc(OCC4(CN5CCOCC5)CC4)nc4c3COC3(Cc5ccccc5C3)C4)C[C@@H]2CC#N)CC1", "< 5.18"),
]
